- assayTarget: DNA repair protein RAD52 homolog (Homo sapiens)
- Sequence (P43351 whole entry): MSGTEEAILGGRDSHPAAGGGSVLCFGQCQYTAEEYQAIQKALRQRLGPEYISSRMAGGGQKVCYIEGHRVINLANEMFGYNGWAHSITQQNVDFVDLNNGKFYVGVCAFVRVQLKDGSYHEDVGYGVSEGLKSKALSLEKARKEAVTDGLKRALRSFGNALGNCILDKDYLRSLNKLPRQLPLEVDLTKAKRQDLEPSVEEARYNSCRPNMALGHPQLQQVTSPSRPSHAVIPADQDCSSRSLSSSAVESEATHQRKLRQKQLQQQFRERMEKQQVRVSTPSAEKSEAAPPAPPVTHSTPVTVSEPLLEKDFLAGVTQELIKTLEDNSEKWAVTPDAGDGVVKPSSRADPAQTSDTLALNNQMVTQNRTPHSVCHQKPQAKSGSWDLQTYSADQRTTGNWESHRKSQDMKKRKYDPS
- Format: functional, biochemical
Calls of active or inactive are those of the source.
Each item that follows carries a reported AC50.
measuredQuantity: AC50

INSERT INTO measurements (compound, testresult) VALUES
  ('c1ccc2c(c1)C1=NCCN1c1ccccc1-2', '5.19 µM (active)'),
  ('CCN(CC)CCC(=O)Nc1cccc2c1C(=O)c1ccccc1C2=O', '0.801 µM (active)'),
  ('COc1ccc2nc3cc(Cl)ccc3c(Nc3cc(CN4CCCC4)c(O)c(CN4CCCC4)c3)c2n1', '< 0.351 µM (active)'),
  ('CCCCCCCCCCCCCCCC[N+](C)(C)Cc1ccc(F)cc1', '5.28 µM (active)'),
  ('N=C(N)c1ccc(/C=C/c2ccc(C(=N)N)cc2O)cc1', '0.708 µM (active)'),
  ('Cc1cc(C)c2nc3nc(C)c(C)cc3c(N)c2c1', '1.56 µM (active)'),
  ('Cc1ccc(C)c(OCC(O)CN2CCN(CCN3C(=O)c4cccc5cccc(c45)C3=O)CC2)c1 (configuration not stated)', '7.35 µM (active)');

* * *

- assayTarget: Sentrin-specific protease 6 (Homo sapiens);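 further: Luminescence-based dose-response confirmatory assay of SENP6 inhibition, following up an ultra-high-throughput screen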
- Sequence (Q9GZR1 whole entry): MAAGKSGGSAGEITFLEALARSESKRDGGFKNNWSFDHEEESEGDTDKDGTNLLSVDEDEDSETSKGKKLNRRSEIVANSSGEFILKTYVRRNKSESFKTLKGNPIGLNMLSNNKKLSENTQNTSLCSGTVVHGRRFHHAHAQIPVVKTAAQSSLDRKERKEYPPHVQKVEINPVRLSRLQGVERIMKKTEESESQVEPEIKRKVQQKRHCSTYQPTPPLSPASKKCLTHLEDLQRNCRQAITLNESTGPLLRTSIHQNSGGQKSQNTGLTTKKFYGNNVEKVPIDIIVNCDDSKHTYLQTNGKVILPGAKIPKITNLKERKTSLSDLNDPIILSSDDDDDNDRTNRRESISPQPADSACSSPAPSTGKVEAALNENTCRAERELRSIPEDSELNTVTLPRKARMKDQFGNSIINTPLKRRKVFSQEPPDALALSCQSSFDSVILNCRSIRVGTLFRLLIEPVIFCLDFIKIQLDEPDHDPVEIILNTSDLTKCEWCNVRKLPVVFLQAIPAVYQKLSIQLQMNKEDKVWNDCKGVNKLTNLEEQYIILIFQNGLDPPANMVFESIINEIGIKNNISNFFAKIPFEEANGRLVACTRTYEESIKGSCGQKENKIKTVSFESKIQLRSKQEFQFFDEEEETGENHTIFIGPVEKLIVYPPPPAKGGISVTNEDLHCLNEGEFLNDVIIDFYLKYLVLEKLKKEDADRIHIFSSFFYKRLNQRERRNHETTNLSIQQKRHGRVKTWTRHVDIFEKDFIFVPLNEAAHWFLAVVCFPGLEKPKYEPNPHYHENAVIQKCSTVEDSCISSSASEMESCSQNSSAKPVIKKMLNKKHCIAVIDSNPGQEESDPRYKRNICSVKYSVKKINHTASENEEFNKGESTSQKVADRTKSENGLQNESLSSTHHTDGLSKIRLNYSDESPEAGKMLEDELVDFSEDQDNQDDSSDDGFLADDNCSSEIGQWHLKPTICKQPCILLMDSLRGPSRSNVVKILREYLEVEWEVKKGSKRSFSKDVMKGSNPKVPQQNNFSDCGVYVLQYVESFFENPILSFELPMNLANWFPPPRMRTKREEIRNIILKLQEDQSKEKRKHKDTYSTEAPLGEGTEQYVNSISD
- Assay type: functional
Calls of active or inactive are those of the source.
Each item that follows carries a reported IC50.
measuredQuantity: IC50

INSERT INTO results (cpdsmiles, testresult) VALUES
  ('COc1ccccc1CNC(=O)COc1ccccc1C(=O)c1cnn(-c2ccccc2)c1', '26.1 µM (active)'),
  ('O=C(COC(=O)c1ccc([N+](=O)[O-])s1)Nc1ccccc1', '4.39 µM (active)'),
  ('O=C(/C=C/c1ccco1)Nc1ccc(Oc2ccccc2)cc1', '5.23 µM (active)'),
  ('COc1cc(Cl)c(NC2=CC(=O)C(=O)c3ccccc32)c(OC)c1', '9.11 µM (active)'),
  ('COc1ccc(S(=O)(=O)Nc2cc(SCC(=O)O)c(O)c3ccccc23)cc1', '3.81 µM (active)'),
  ('Clc1ccc(-c2nnc(NC3=NCCCCC3)o2)cc1', '30.1 µM (active)');

* * *

- assayTarget: Voltage-dependent T-type calcium channel subunit alpha-1H (Homo sapiens, UniProt O95180);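 further: channel activity triggered by adding a high calcium stimulation buffer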
- Sequence (O95180 whole entry): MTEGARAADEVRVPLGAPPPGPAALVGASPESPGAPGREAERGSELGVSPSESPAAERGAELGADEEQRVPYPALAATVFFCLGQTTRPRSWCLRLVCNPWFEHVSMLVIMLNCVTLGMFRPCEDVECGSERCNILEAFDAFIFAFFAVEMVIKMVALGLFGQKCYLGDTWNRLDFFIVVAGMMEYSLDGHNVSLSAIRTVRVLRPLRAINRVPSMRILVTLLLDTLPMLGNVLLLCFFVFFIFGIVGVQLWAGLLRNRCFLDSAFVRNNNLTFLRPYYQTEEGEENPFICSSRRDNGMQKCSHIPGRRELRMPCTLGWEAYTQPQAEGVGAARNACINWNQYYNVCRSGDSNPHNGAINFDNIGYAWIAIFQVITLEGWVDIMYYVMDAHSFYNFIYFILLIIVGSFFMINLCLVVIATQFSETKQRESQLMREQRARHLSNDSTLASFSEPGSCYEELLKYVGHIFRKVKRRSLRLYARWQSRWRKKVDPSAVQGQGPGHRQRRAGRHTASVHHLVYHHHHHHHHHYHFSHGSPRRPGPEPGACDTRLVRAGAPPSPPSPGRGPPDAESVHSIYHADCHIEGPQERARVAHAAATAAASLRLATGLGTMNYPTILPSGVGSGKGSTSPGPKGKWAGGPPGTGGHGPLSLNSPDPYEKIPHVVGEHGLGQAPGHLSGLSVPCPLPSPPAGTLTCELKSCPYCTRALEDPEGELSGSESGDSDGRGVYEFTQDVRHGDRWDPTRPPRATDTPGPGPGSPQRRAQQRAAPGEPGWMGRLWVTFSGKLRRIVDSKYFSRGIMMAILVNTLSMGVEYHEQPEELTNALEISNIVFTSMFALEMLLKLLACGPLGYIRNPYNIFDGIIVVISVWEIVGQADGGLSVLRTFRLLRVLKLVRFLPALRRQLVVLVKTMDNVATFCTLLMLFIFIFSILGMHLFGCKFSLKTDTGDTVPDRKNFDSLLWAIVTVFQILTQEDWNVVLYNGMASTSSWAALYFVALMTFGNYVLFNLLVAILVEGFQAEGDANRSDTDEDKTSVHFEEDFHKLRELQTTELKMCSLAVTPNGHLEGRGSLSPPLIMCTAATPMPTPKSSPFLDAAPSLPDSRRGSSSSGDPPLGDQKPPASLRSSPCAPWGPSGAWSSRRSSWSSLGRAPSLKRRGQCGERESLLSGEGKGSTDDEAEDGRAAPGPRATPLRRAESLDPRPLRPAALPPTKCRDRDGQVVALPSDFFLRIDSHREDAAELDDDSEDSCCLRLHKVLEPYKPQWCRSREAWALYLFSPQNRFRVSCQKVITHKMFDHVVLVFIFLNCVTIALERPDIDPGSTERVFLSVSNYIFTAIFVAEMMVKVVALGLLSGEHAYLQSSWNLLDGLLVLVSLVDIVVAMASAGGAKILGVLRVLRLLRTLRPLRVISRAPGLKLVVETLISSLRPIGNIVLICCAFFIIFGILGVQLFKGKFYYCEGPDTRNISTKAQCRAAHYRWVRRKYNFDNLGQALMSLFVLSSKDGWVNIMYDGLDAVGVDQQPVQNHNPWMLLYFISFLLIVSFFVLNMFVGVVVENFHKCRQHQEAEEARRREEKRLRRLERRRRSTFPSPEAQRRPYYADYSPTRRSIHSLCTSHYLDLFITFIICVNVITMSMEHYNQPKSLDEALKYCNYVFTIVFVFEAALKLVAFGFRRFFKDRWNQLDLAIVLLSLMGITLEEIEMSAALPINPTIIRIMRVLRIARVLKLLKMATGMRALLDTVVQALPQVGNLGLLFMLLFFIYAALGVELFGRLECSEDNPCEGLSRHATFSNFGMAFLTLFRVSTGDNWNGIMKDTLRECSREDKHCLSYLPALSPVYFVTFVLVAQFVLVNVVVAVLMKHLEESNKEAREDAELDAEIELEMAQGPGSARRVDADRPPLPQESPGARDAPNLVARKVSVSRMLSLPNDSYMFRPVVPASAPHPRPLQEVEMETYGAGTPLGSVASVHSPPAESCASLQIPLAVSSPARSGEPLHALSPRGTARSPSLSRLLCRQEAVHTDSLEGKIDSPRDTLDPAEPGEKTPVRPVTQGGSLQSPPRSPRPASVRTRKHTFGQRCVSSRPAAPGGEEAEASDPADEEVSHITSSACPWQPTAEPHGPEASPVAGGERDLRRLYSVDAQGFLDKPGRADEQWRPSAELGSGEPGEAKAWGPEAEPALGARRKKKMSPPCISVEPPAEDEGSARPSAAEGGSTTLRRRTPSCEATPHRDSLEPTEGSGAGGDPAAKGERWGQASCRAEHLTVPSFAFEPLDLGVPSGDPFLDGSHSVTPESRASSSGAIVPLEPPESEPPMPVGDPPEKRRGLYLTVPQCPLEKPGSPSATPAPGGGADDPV
- Assay type: functional
The source made the active and inactive calls.
measuredQuantity: EC50

INSERT INTO measurements (compound, measuredquantity, testresult) VALUES
  ('Cc1ccc2oc(=O)n(Cc3ccccc3OC(C)C)c2c1', 'EC50', '8.57 µM (active)'),
  ('CCn1c(CNc2ccccc2Cl)nnc1SCC(=O)OC1CCCCC1', 'EC50', '3.84 µM (active)'),
  ('CCOc1ccc(-c2nc(CSCC(=O)NC3CCCc4ccccc43)c(C)o2)cc1 (configuration not stated)', 'EC50', '3.26 µM (active)'),
  ('O=C(CSc1nnc(-c2ccccc2)n1Cc1ccco1)NCc1ccc2c(c1)OCO2', 'EC50', '12.1 µM (active)'),
  ('COc1ccccc1C(=O)Nc1ccc(NC(=O)c2ccco2)c(C)c1', 'EC50', '6.29 µM (active)'),
  ('COc1ccc(N(C(=O)Cn2cnc3ccccc32)C(C(=O)NC2CCCCC2)c2ccccc2)cc1 (configuration not stated)', 'EC50', '4.82 µM (active)'),
  ('CC(Oc1ccccc1)c1ccnn1S(=O)(=O)c1ccccc1 (configuration not stated)', 'EC50', '50.8 µM (active)');

* * *

Each item that follows carries a reported EC50.
- System: H4
- protocolText: Luminescence Cell-Based Dose Response HTS to Identify Activators of 5'UTR Stem-Loop Driven Prion Protein mRNA Translation in H4 Neuroglioblastoma Cells. [Related pubchem assays: 1829 (Project Summary), 1814 (Primary HTS)]
- Assay type: functional
- conditionSummary: Homo sapiens
Active and inactive are the calls of the source.
measuredQuantity: EC50

INSERT INTO results (compound, testresult) VALUES
  ('N#CC1=C(N)Oc2cc(N)ccc2C1C1CCCCC1 (stereo unspecified)', '> 120 µM (not active)'),
  ('O=C(NNC(=O)c1cc2ccccc2cc1O)c1cccs1', '> 120 µM (not active)'),
  ('O=C1C2C3C=CC(CO)(O3)C2C(=O)N1c1ccc(-c2ccccc2)cc1 (stereo unspecified)', '15.5 µM (active)'),
  ('CC(=O)c1cc(-c2ccccc2)n(CC(=O)NC2CCCC2)c1C', '> 120 µM (not active)'),
  ('CN(C)c1ccc(NC(S)=NC23CC4CC(CC(C4)C2)C3)cc1', '17.1 µM (active)'),
  ('CCc1ccc2nc(NC(=O)C3CSC4(C)CCC(=O)N34)sc2c1 (stereo unspecified)', '6.99 µM (active)');

* * *

Each item that follows carries a reported EC50.
- assayTarget: Zinc finger protein mex-5 (Caenorhabditis elegans)
- Sequence (Q9XUB2 whole entry): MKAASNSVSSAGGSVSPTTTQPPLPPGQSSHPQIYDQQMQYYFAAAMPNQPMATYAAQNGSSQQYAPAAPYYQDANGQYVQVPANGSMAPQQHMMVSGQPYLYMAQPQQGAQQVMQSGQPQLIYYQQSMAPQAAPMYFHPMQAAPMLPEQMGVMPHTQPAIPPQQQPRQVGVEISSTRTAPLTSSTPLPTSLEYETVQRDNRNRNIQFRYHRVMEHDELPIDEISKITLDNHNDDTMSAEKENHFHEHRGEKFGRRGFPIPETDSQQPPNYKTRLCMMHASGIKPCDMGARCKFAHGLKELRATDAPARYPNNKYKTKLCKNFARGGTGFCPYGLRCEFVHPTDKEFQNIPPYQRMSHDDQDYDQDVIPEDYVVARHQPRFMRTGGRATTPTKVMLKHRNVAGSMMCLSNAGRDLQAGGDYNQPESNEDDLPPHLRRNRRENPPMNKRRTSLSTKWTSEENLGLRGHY
- protocolText: MEX-5/TCR-2 RNA interaction inhibitors, dose response, biochemical, C. elegans, fluorescence polarization (AID 1960)
Calls of active or inactive are those of the source.
measuredQuantity: EC50

INSERT INTO assay_data (compound, measuredquantity, testresult) VALUES
  ('O=C1c2ccccc2-c2onc3ccc(NCc4ccco4)c1c23', 'EC50', '< 0.06 µM (inconclusive)'),
  ('CCOC(=O)c1c(NC(=O)Nc2ccc(F)cc2)sc2c1CCN(C)C2', 'EC50', '39.8 µM (active)'),
  ('CC(=O)N(C)c1ccc(N=NC2C(=O)N(C(N)=S)N=C2C)cc1 (configuration not stated)', 'EC50', '34.6 µM (active)'),
  ('C=CC/N=c1\scc(-c2ccco2)n1/N=C/c1ccc(O)c(O)c1O', 'EC50', '2.68 µM (active)'),
  ('COc1ccccc1N1C(=O)NC(=O)/C(=C\c2c[nH]c3ccccc23)C1=O', 'EC50', '> 300 µM (not active)'),
  ('Cc1cc(NC(=O)/C(C#N)=C/c2ccc(-c3ccc(SC(F)F)cc3)o2)n(-c2ccccc2)n1', 'EC50', '25.8 µM (active)'),
  ('O=c1oc2ccccc2cc1-c1nc(-c2cccs2)cs1', 'EC50', '5.43 µM (active)');

* * *

- Tested on: INS1
- protocolText: beta cell apoptosis inhibitors, cytokine rescue, dose response, luminescence, retest (AID 449756);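 further: cell death triggered by IL-1 beta plus TNF-alpha plus IFN-gamma mixture; protective hits raise ATP signal compared with cytokine alone wells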
- Type: functional, cell-based
- conditionSummary: Rattus norvegicus
Calls of active or inactive are those of the source.
Each item that follows carries a reported AC50.
measuredQuantity: AC50

INSERT INTO measurements (compound, testresult) VALUES
  ('CCOc1ccc2nc(NC(=O)c3ccccn3)sc2c1', '3.32 µM (active)'),
  ('COc1ccc(C2CC(c3cccc(C)c3)n3nc(N)nc3N2)cc1 (stereo unspecified)', '> 260 µM (inactive)'),
  ('CN1N=C(C(C)(C)C)CS/C1=N/c1ccccc1', '> 260 µM (inactive)'),
  ('O=C(Nc1ccc(Br)c(C(F)(F)F)c1)c1ccc(C(F)(F)F)cc1', '8.01 µM (active)'),
  ('Cc1ccc(-n2cccc2C(=S)N=P(N(C)C)(N(C)C)N(C)C)cc1', '6.81 µM (active)'),
  ('Cc1ccc(-n2c(Cl)c(Cl)nc(Cl)c2=O)cc1', '4.43 µM (active)');

* * *

- protocolText: inhibitors of firefly luciferase expression or activity, dose response, H4 neuroglioma cells, luminescence (AID 1990)
- Format: functional, cell-based
Calls of active or inactive are those of the source.
measuredQuantity: EC50

INSERT INTO results (cpdsmiles, testresult) VALUES
  ('CCc1ccc(/C=C2/C(=O)N(c3ccccc3)C(=S)N2CC(=O)OC)s1', '> 120 µM (not active)'),
  ('O=C(Nc1ccccc1)c1cc([N+](=O)[O-])ccc1NC1CCCCC1', '16.4 µM (active)'),
  ('N#Cc1ccc(-c2cccs2)nc1SCc1cccnc1', '5.46 µM (active)'),
  ('O=C(Oc1c(-c2ccccc2)c(=O)n2c3c(cccc13)CC2)c1cccc([N+](=O)[O-])c1', '12 µM (active)'),
  ('CC(C)CN(Cc1cc(=O)oc2cc(-c3ccccc3)c(O)cc12)CC(C)C', '12.1 µM (active)');

* * *

Each item that follows carries a reported EC50.
- Tested on: BJ
- protocolText: cytotoxicity toward BJ-TERT fibroblasts, dose response, cell-based, RAS-independent, luminescence (AID 1933)
- Type: functional
- conditionSummary: Homo sapiens
Activity calls are given as the source filed them.
measuredQuantity: EC50

INSERT INTO results (compound, assaytarget, measuredquantity, testresult) VALUES
  ('COc1ccc(-n2c(SC(C)C(=O)Nc3ncc(Cl)cc3Cl)nc3ccccc32)cc1 (centres undefined)', 'BJ', 'EC50', '29.8 µM (active)'),
  ('COc1cc2nc(NC(=O)c3ccccc3)sc(=O)c2cc1OC', 'BJ', 'EC50', '20.1 µM (active)'),
  ('O=C(C1=C(c2ccccc2)C(=O)c2ccccc2C1=O)c1ccccc1', 'BJ', 'EC50', '5.95 µM (inconclusive)'),
  ('COc1cc(-c2noc(C)c2-c2ccc(N(C)C)nc2)cc(OC)c1OC', 'BJ', 'EC50', '0.174 µM (active)');

The reported measurements were obtained from ChEMBL document CHEMBL1201862.
